# system.tested: HO-2 (rat brain) (Rattus norvegicus, UniProt P23711)
# Construct: brain microsomes were used as a source of HO-2; from tissue; host or cells: brain microsomal fraction of adult male Sprague-Dawley rats
# Sequence (P23711 whole entry): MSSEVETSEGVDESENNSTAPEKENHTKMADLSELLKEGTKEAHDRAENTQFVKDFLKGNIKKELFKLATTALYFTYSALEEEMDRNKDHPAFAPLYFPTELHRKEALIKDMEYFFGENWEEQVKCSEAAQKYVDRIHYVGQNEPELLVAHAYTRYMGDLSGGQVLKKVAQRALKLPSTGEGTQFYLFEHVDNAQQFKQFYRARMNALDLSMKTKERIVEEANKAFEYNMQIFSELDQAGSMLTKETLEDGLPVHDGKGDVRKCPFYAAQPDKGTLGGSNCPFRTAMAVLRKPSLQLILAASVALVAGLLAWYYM
# test.method.notes: HO enzymatic activity, rat brain microsomal fraction (CO formation from methemalbumin)
# Assay type: biochemical
# reported.conditions: IC50 HO-2 (rat brain)/μM), average ± SD of replicate experiments
Where a name gives a salt, the structure may show the parent alone.
Some molecules, each annotated with its measured IC50.
Please state the figure in µM; there is no need to write the unit.

Given the entry O=C(/C=C/c1ccccc1)CCn1ccnc1 [QC-223, hydrochloride] , report its measured IC50.
31

Given the entry COc1ccc(C(=O)Cn2ccnc2)cc1 [QC-163, hydrochloride] , report its measured IC50.
62

Given the entry Brc1ccc(CCCCn2ccnc2)cc1 [QC-199, hydrochloride] , report its measured IC50.
6.7

Numbers sourced from patent US20120020915A1.
